Value source: patent US20260234129A1

Listed below: GI50 values for each entry.
system: MV4-11 cells (FLT3-ITD-expressing AML cell line); assay: Cell proliferation inhibition, Alamar Blue; assay type: cell-based, human; settings: Homo sapiens, MV4-11, 72 hours of compound treatment, read-out: Cellular (GI50) MV4-11

Here's what some known entries look like.
| Compound | GI50 |
| --- | --- |
| O=C(NCC1CC(F)(F)C1)c1ccc2[nH]nc(-c3nc4ccc(N5CCCC5)cc4[nH]3)c2c1 [Example 14] | 10 to 100 nM |
| NCCCNC(=O)c1ccc2[nH]nc(-c3nc4cccc(F)c4[nH]3)c2c1 [Example 25] | 10 to 100 nM |
| CN(C)CCCNC(=O)c1ccc2[nH]nc(-c3nc4cc(F)c(F)cc4[nH]3)c2c1 [Example 9] | 10 to 100 nM |

Now for the compound whose GI50 we want.
Note to self: GI50 recorded for CN(C)CCCNC(=O)c1ccc2[nH]nc(-c3nc4ccc(C#N)cc4[nH]3)c2c1 [Example 10] was 100 to 1000 nM

###

Reported GI50 is given for each of the following compounds.
tested on: MV4-11 cells (FLT3-ITD-expressing AML cell line); experiment: Cell proliferation inhibition, Alamar Blue; format: cell-based, human; conditions: Homo sapiens, MV4-11, 72 hours of compound treatment, read-out: Cellular (GI50) MV4-11

Examples from the recorded data:
| Structure Smiles | Measured On | Recorded Measurement |
| --- | --- | --- |
| CC(C)n1c(-c2n[nH]c3ccc(C(=O)NCCCN)cc23)nc2ccc(F)cc21 | MV4-11 cells (FLT3-ITD-expressing AML cell line) | > 1000 nM |
| NCCCNC(=O)c1ccc2[nH]nc(-c3ncc(-c4cccc([N+](=O)[O-])c4)[nH]3)c2c1 | MV4-11 cells (FLT3-ITD-expressing AML cell line) | 100 to 1000 nM |
| NCCNC(=O)c1ccc2[nH]nc(-c3nc4ccc(F)cc4[nH]3)c2c1 | MV4-11 cells (FLT3-ITD-expressing AML cell line) | 10 to 100 nM |

Value of GI50 reported for the compound "CN(C)CCn1c(-c2n[nH]c3ccc(C(=O)NCCCN)cc23)nc2ccc(F)cc21" is > 1000 nM

// recorded GI50 for "NCCCNC(=O)c1ccc2[nH]nc(-c3ncc(-c4ccc(F)cc4)[nH]3)c2c1" : 10 to 100 nM

GI50 for "NCCN1CCC(NC(=O)c2ccc3[nH]nc(-c4nc5ccccc5[nH]4)c3c2)CC1" is 10 to 100 nM

"O=C(c1ccc2[nH]nc(-c3nc(-c4ccccc4)c[nH]3)c2c1)N1CCN(c2ccc(F)cc2)CC1" has a reported GI50 of > 1000 nM

"CN(C)CCNC(=O)c1ccc2[nH]nc(-c3nc(-c4ccccc4)c[nH]3)c2c1" yielded GI50 of 100 to 1000 nM

Given item "NCCCNC(=O)c1ccc2[nH]nc(-c3ncc(-c4ccc(N5CCOCC5)cc4)[nH]3)c2c1" , the value recorded as its GI50 is 100 to 1000 nM

According to the records, this compound "CS(=O)(=O)NCCNC(=O)c1ccc2[nH]nc(-c3nc(-c4ccccc4)c[nH]3)c2c1" displays GI50 of > 1000 nM

Entry "NCCCNC(=O)c1ccc2[nH]nc(-c3ncc(-c4ccccc4F)[nH]3)c2c1" ; GI50 = 10 to 100 nM

GI50 recorded for this compound, "CC(=O)NCCCNC(=O)c1ccc2[nH]nc(-c3nc4ccc(N5CCCCC5)cc4[nH]3)c2c1" , is < 10 nM

So for "NCCCNC(=O)c1ccc2[nH]nc(-c3ncc(-c4cccc(N5CCOCC5)c4)[nH]3)c2c1" , the logged GI50 turned out to be 10 to 100 nM

response.value for "CC(=O)N1CC2(C1)CN(C(=O)c1ccc3[nH]nc(-c4nc5ccc(N6CCOCC6)cc5[nH]4)c3c1)C2" (field: GI50) = > 1000 nM

// field: GI50; key: "NCCCNC(=O)c1ccc2c(-c3nc4ccc(F)cc4[nH]3)n[nH]c2c1" ; value = > 1000 nM

GI50 measured on "NCCCNC(=O)c1ccc2[nH]nc(-c3nc4ccc(Cl)cc4[nH]3)c2c1" = 10 to 100 nM

Please fill in: GI50 reported for "NCCCNC(=O)c1ccc2[nH]nc(-c3ncc(-c4cccc(F)c4)[nH]3)c2c1" = 10 to 100 nM

Per the records, this compound ( "NCCCNC(=O)c1ccc2[nH]nc(-c3nc4ccc(C(=O)N5CCOCC5)cc4[nH]3)c2c1" ) has GI50 equal to 100 to 1000 nM
